# Test system: Mus musculus
# measurement description: Neurotoxicity in ip dosed CF1 albino mouse after 0.5 hr by rotarod test
# Assay type: toxicity, organism-based
# assay context: in vivo
quantity name: Activity (mg/kg)
Answers are plain numbers, in mg/kg.

Documented Activity of CCCC1(C)CC(=O)N(Nc2cccc(Cl)c2)C1=O (configuration not stated) : 100

compound CCC1(C)CC(=O)N(Nc2ccc(C)cc2)C1=O (configuration not stated) , Activity observed: 300

// sample CCC1(C)CC(=O)N(Nc2ccc(Cl)cc2)C1=O (configuration not stated) , its Activity was 100

Recorded result, CCC1(C)CC(=O)N(Nc2ccccc2)C1=O (configuration not stated) , Activity: 100

Entry under test: CCC1(C)CC(=O)N(Nc2ccc(Br)cc2)C1=O (configuration not stated) . Its Activity was 300

// each listed compound needs a value for Activity
1. O=C1C2CCCCC2C(=O)N1Nc1cccc(Cl)c1 (configuration not stated)
2. CC1(C)CC(=O)N(Nc2ccc(Br)cc2)C1=O

[300, 300]
